Data provenance is patent US20150017673A1.

- Test system: lymphoma cell line G3
- TEST: Cell growth assay (resazurin fluorescence) on CHOP-resistant G3 NHL cells
- Type: cell-based, human
- STUDY_CONDITIONS: with 1 μM doxorubicin, lymphoma cell line G3; read-out: IC50 (μM) with doxorubicin (1 μM)
Please assign 0 whenever IC50 is at or above 0.9 µM, and 1 whenever it is below.

Some solved cases for reference:
1. COC1C=COC2(C)Oc3c(C)c(O)c4c(c3C2N)C2=NC3(CCN(C(=O)OCC(C)C)CC3)NC2=C(NC(=O)C(C)=CC=CC(C)C(O)C(C)C(O)C(C)C(OC(C)=O)C1C)C4=O (centres unmarked)    1
2. COC1C=COC2(C)Oc3c(C)c(O)c4c(c3C2=O)C2=NC3(CCN(C(=O)NCC(C)C)CC3)NC2=C(NC(=O)C(C)=CC=CC(C)C(O)C(C)C(O)C(C)C(OC(C)=O)C1C)C4=O (centres unmarked)    0
3. COC1C=COC2(C)Oc3c(C)c(O)c4c(c3C2=N)C2=NC3(CCN(C(=O)OCC(C)C)CC3)NC2=C(NC(=O)C(C)=CC=CC(C)C(O)C(C)C(O)C(C)C(OC(C)=O)C1C)C4=O (centres unmarked)    1

In: For this compound, is IC50 lower than 0.9 µM? COC1C=COC2(C)Oc3c(C)c(O)c4c(c3C2=N)C2=NC3(CCN(CCN5CCOCC5)CC3)NC2=C(NC(=O)C(C)=CC=CC(C)C(O)C(C)C(O)C(C)C(OC(C)=O)C1C)C4=O (centres unmarked)
Out: 0

In: I'd appreciate it if you could check whether COC1C=COC2(C)Oc3c(C)c(O)c4c(c3C2=O)C2=NC3(CCN(C(=O)OCC(C)C)CC3)NC2=C(NC(=O)C(C)=CC=CC(C)C(O)C(C)C(O)C(C)C(OC(C)=O)C1C)C4=O (centres unmarked) has IC50 smaller than 0.9 µM.
Out: 0

---

- System: ovarian cancer OVCAR-8
- TEST: Cell growth assay on OVCAR-8 cells
- Format: cell-based
- STUDY_CONDITIONS: Homo sapiens, therapeutic drug with Rifabutin, read-out: IC50 (μM) with Rifabutin
OBSERVED_PROPERTY: IC50 (µM)
Give your result in µM as a bare value.

In: Using ovarian cancer OVCAR-8 as the test system, report measured IC50 of O=C1c2c(O)ccc(O)c2C(=O)c2c(NCCNCCO)ccc(NCCNCCO)c21 [Mitoxantrone, mitoxantrone] .
Out: 3

---

- System: drug-sensitive ovarian cancer cell line OVCAR-5
- TEST: Cell growth assay on OVCAR-5 cells
- Format: cell-based
- STUDY_CONDITIONS: Homo sapiens; therapeutic drug alone, OVCAR-5; read-out: IC50
OBSERVED_PROPERTY: pIC50
pIC50 is defined as minus the log10 of a concentration measured in mol/L.

In: Tell me measured pIC50 for CC(C)C[C@H](NC(=O)[C@H](Cc1ccccc1)NC(=O)c1cnccn1)B(O)O [Velcade, bortezomib] please.
Out: 6.77
